Examples of compounds with documented IC50 follow.
- System: Lovo (G13D) cells
- method: Cell viability assay (CELLTITER-GLO), Lovo cells
- Assay type: cell-based
- conditionContext: Homo sapiens, 72 h, 3 days at 37° C., CELLTITER-GLO luminescence, read-out: Inhibition of Cancerous Cells IC50 (μM) Lovo (G13D)
readoutType: IC50 (µM)

compound	displayUnit	experimentalValue
COc1cc2c(N[C@H](C)c3cccc(Br)c3)nc(C)nc2cc1OCCCCCN1CCN(C(=O)CNc2ccc(C3CCC(=O)NC3=O)cc2)CC1 (stereo partly shown) [Compound B8]	µM	1.3
COc1cc2nc(C)nc(N[C@H](C)c3cccc(Br)c3)c2cc1OC [reference compound]	µM	2.5
COc1cc2c(N[C@H](C)c3cccc(Br)c3)nc(C)nc2cc1OCCCCCCCCCN1CCN(C(=O)CNc2ccc3c(N4CCC(=O)NC4=O)nn(C)c3c2)CC1 [Compound D8]	µM	1.2
COc1cc2c(N[C@H](C)c3cccc(Br)c3)nc(C)nc2cc1OCCCCCCCCCCCN1CCN(C(=O)COc2ccc(N3CCC(=O)NC3=O)cc2)CC1 [Compound C3]	µM	0.93

Cited source: patent US20240174643A1
